FYI, the data here is from patent US20240270731A1.

Weight Gain compared with Day 0 values by entry
Test: 7-day repeated oral gavage, body weights of ICR mice
Assay type: in vivo
Conditions: Day 3, 1 mg/kg oral QD, n=10
Report only the number, with the unit g understood.

INPUT: Item under review: [2H]c1cccc([2H])c1-c1nc(CC([2H])([2H])Oc2ccc(C[C@H](OC)C(=O)O)c3sccc23)c(C)o1 (single isomer, unassigned) . Reported Weight Gain compared with Day 0?
OUTPUT: 2.96

INPUT: Item under review: [2H]C([2H])(Cc1nc(-c2ccccc2)oc1C)Oc1ccc(C[C@H](OC)C(=O)O)c2sccc12 (single isomer, unassigned) . Reported Weight Gain compared with Day 0?
OUTPUT: 2.71

INPUT: Item under review: [2H]c1c([2H])c([2H])c(-c2nc(CCOc3ccc(C[C@H](OC)C(=O)O)c4sccc34)c(C)o2)c([2H])c1[2H] (single isomer, unassigned) . Reported Weight Gain compared with Day 0?
OUTPUT: 2.75

Attention now turns to another entry.
INPUT: Item under review: CO[C@@H](Cc1ccc(OCCc2nc(-c3ccccc3)oc2C)c2ccsc12)C(=O)O [Aleglitazar, aleglitazar, reference compound] . Reported Weight Gain compared with Day 0?
OUTPUT: 2.61
